Assayed target: T1, TGFβ3 (R&D Systems)
T1 sequence (P10600 301-412, species assumed, looked up): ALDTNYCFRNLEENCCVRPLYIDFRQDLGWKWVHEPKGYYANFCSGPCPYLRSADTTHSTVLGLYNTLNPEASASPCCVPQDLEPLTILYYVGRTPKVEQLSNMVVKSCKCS
Assay summary: SPR (Biacore T200), TGFβ amine-coupled to chip, 1:1 fit
Kd by entry:
Note: unit nM is implicit; provide only the numeric part.

Look over these answered cases.
Caninized anti-TGFβ1,2,3 antibody VH4.11 - VL3 (antibody, V domains shown) VH: QVQLVQSGAEVKKPGSSVKVSCKASGYTFSSNVISWVRQAPGKGLQWVGGVIPIVDIANYAQRFKGRVTLTADTSTNTVYMELSNLRTEDTAVYYCARTLGLVLDAMDYWGQGTLVTVSS VL: EIVMTQSPASLSLSQEEKVTITCRASQSLGSSYLAWYQQKPGQAPKLLIYGASSRAPGVPSRFSGSGSGTDFSFTISSLEPEDVAVYYCQQYADSPITFGQGTKLEIKR	2.5
Caninized anti-TGFβ1,2,3 antibody VH3.6 - VL2 (antibody, V domains shown) VH: EVQLVQSAAEVKKPGASVKVSCKTSGYIFISNVISWVRQAPGQGLEWMGGVIPIVDIANYAQRFKGRVTITADESTSTTYMELSSLRSEDTAVYYCASTLGLVLDAMDYWGQGTLVTVSS VL: ETVLTQSPGTLSLSPGERATLSCRASQSLGSSYLAWYQQKPGQAPRLLIYGASSRAPGVPARFSGSGSGTDFTLTISSLEPEDFAVYYCQQYADSPITFGQGTKLEIKR	1.49

Now look at this entry.
Dear colleague, I am looking for the recorded Kd of the following binder: Felinized anti-TGFβ1,2,3 antibody VH3.2 - VL3 (antibody, V domains shown) VH: DVQLVESGGDLVKPGGSLRLTCVASGYTFSSNVMHWVRQAPGKGLQWVAYVIPIVDIAYYADSVKGRFTISIDNSKNTLYLQMNSLKTEDTATYYCARTLGLVLDAMDYWGQGTLVTVSS VL: EIQMTQSPSSLSASPGDRVTITCRASQSLGSSYLAWYQQKPGKVPKLLIYGASSRAPGVPSRFSGSGSGTDFTLTISSLEPEDAATYYCQQYADSPITFGQGTKLEIKR
0.144
